- Tested on: PPARg:RXRa IVT, anti-PPARg (NR concentration 270 nM, RXRa partner concentration 90 nM)
- ASSAY_INFO: PBM binding z-score (relative to random genomic background probes); higher = stronger binding; sequences stand for … in GC…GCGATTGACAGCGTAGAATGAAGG
I would appreciate it if you labelled entries YES when PBM binding z-score is 2 or higher, otherwise NO.

Answered cases to consult:
[
  {
    "SEQUENCE_TEXT": "TAGCCTAGGTCATGCGGACCAGTATAGTGTCGGC",
    "CLASS_LABEL": "YES"
  },
  {
    "SEQUENCE_TEXT": "GATCGGAGGACAAGGTCAGAGCTTTGTCCGTAGA",
    "CLASS_LABEL": "NO"
  },
  {
    "SEQUENCE_TEXT": "CGTCCAAGGTCAAAGGTCAGTCAAGAGATGACGG",
    "CLASS_LABEL": "YES"
  },
  {
    "SEQUENCE_TEXT": "CAGCCTAGGTCAGGGCCAGTATAGGAGGAACGTT",
    "CLASS_LABEL": "NO"
  },
  {
    "SEQUENCE_TEXT": "AGAACGAGGGCAATGAGTCGATAGCACGGGTGGC",
    "CLASS_LABEL": "YES"
  }
]

Would you say TAGCCTAGGTCAGATCGGGCCAGTATACGCTATA shows PBM binding z-score at minimum 2?
NO

###

- Tested on: PPARg:RXRa 270nM:90nM, anti-RXR (NR concentration 270 nM, RXRa partner concentration 90 nM)
- ASSAY_INFO: PBM binding z-score (relative to random genomic background probes); higher = stronger binding; sequences stand for … in GC…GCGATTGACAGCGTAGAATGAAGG
Collected PBM binding z-score values appear next to each entry.
Give the figure only, with no unit attached.

The following sequences have reported results that may help.
[
  {
    "SEQUENCE_TEXT": "CGAACCAGGTCAGAACAGGACAGTGAAGGATGAT",
    "MEASUREMENT_TYPE": "PBM binding z-score",
    "NUMERIC_RESULT": 1.88
  },
  {
    "SEQUENCE_TEXT": "TCTGCTAGGTCAACGATGGTCCGCTAATCTGCTA",
    "MEASUREMENT_TYPE": "PBM binding z-score",
    "NUMERIC_RESULT": 2.75
  },
  {
    "SEQUENCE_TEXT": "GGAACGGGGGCAAAGTTGATAGCATCTGTCGACG",
    "MEASUREMENT_TYPE": "PBM binding z-score",
    "NUMERIC_RESULT": 8.52
  },
  {
    "SEQUENCE_TEXT": "ATATATAGGTTAGCTGGGGTCATTCAGACTAGGC",
    "MEASUREMENT_TYPE": "PBM binding z-score",
    "NUMERIC_RESULT": 5.43
  },
  {
    "SEQUENCE_TEXT": "TCTTGTAGATCAGCAGGTTAAGAATGCTGGCCAA",
    "MEASUREMENT_TYPE": "PBM binding z-score",
    "NUMERIC_RESULT": 1.26
  }
]

Could you now look at the following sequence, please?
Which PBM binding z-score value is on record for CTCGAAAGGTCGGTTGAGGTGGGTATACGGATAA ?
0.726
